test system: Vaccinia virus; assay: Antiviral activity against wild type Vaccinia virus infected in human HFF cells assessed as reduction in viral replication measured after 5 days by microscopic analysis; format: functional, organism-based; details: Orthopoxvirus vaccinia, 120 h
observed_property: pEC50
# pEC50 is unitless: minus log10 of the molar concentration; print number only

For record CC(=O)Oc1ccccc1C(=O)Nc1ncc([N+](=O)[O-])s1 [NITAZOXANIDE] the listed pEC50 is 5.71

----------
test system: Cowpox virus; experiment: Antiviral activity against Cowpox virus Grishak infected in African green monkey Vero cells measured after 4 days by colorimetric assay; assay type: functional, organism-based; conditions: 96 h
Note to self: use yes (1) only for IC50 readings below 8 µM; a reading exactly at 8 µM still gets no (0).

Examples from the recorded data:
CC1(C)[C@@H]2CC[C@@]1(C)[C@H](NC(=O)c1ccc(Cl)cc1)C2; no (0)
CC1(C)[C@@H]2CC[C@@]1(C)/C(=N/NC(=O)C1CCC(F)(F)CC1)C2; no (0)
CC1(C)[C@@H]2CC[C@@]1(C)[C@@H](NC(=O)c1ccc(Br)cc1)C2; yes (1)
CC1(C)/C(=N\NC(=O)c2ccc(Cl)cc2)[C@]2(C)CC[C@H]1C2; yes (1)
CC1(C)[C@@H]2CC[C@@]1(C)[C@H](NC(=O)c1ccc([N+](=O)[O-])cc1)C2; no (0)

Asked: # check: IC50 < 8 µM for CC1(C)[C@@H]2CC=C(CNC(=O)C34CC5CC(CC(C5)C3)C4)[C@H]1C2
Given back: yes (1)

Asked: # check: IC50 < 8 µM for CC1(C)[C@@H]2CC[C@@]1(C)[C@@H](NC(=O)c1ccc(C(F)(F)F)cc1)C2
Given back: yes (1)

----------
test system: Variola virus; assay: Antiviral activity against Variola virus 7124 infected in African green monkey BSC-1 cells; type: functional, organism-based; conditions: Variola virus, 7124, BSC-1
Below, each of the compounds is paired with its reported pEC50 value.
pEC50 here is simply -log10 of the concentration when that concentration is written in mol/L.

O[C@H]1[C@H]2c3cc4c(cc3CN3CCC(=C[C@@H]1O)[C@H]23)OCO4 [LYCORINE]; 5.30

Reported pEC50 (Variola virus) for entry O=C1c2c(O)ccc(O)c2C(=O)c2c(NCCNCCO)ccc(NCCNCCO)c21 [MITOXANTRONE] is 6.60

----------
tested on: Cowpox virus; test: Antiviral activity against Cowpox virus Grishak infected in African green monkey Vero cells measured after 4 days by colorimetric assay; assay type: functional, organism-based; settings: 96 h
# key: entry, value: pIC50
// returns pIC50 (minus log10 of molar concentration), number only

CC1(C)[C@@H]2CC[C@@]1(C)[C@@H](NC(=O)C1CCCCC1)C2; 4.84

pIC50 reported for this compound CC1(C)[C@@H]2CC[C@@]1(C)[C@@H](NC(=O)c1ccc([N+](=O)[O-])cc1)C2 : 5.85

Just so you know, measured pIC50 for CC1(C)[C@@H]2CC=C(CCNC(=O)C34CC5CC(CC(C5)C3)C4)[C@H]1C2 came out at 5.39

CC1(C)[C@@H]2CC=C(C(=O)NC34CC5CC(CC(C5)C3)C4)[C@H]1C2 yielded pIC50 of 5.14

Form: compound = CC1(C)[C@@H]2CC[C@@]1(C)[C@@H](NC(=O)c1ccc(Cl)cc1)C2 ; pIC50 = 5.62
